- Tested on: HCT-116
- PROTOCOL DESCRIPTION: Cytotoxicity against human HCT116 cells incubated for 48 hrs by Celltiter-blue assay
- Type: cell-based
- CONDITIONS: HCT-116, 48 h
pIC50: −log10 of the molar value.
Reported pIC50 values for a set of compounds
MEASURE: pIC50

1. O=C1NC(O)c2c1c1c3ccccc3[nH]c1c1[nH]c3ccccc3c21 (configuration not stated) ... 4.96
2. O=C1NC(O)c2c1c1c3cc(CC=C4CCCCC4)ccc3[nH]c1c1[nH]c3ccccc3c21 (configuration not stated) ... 4.51
3. O=C1NC(O)c2c1c1c3cc(CC4=CCCCC4)ccc3[nH]c1c1[nH]c3ccccc3c21 (configuration not stated) ... 4.21
4. O=C1NC(O)c2c1c1c3cc(CC=C4CCCC4)ccc3[nH]c1c1[nH]c3ccccc3c21 (configuration not stated) ... 4.24
5. CC/C(C)=C/Cc1ccc2[nH]c3c4[nH]c5ccccc5c4c4c(c3c2c1)C(=O)NC4O (configuration not stated) ... 4.42
6. CCC(=CCc1ccc2[nH]c3c4[nH]c5ccccc5c4c4c(c3c2c1)C(=O)NC4O)CC (configuration not stated) ... 4.46
7. CC(C)=CCc1ccc2[nH]c3c4[nH]c5ccccc5c4c4c(c3c2c1)C(=O)NC4O (configuration not stated) ... 4.21
